// TGI lookup, one value per entry
tested on: OVCAR-8 ovarian; assay: NCI tumour cell line growth inhibition, 48 h

Compound	TGI
CON(C)C(=O)C(C)N(Cc1ccccc1)Cc1ccccc1 (stereo unspecified)	> 100 µM
O=C(O)C(Cl)Cl	> 10000 µM
Cc1ccc(S(=O)(=O)N2CCC2c2ccccc2)cc1 (stereo unspecified)	> 100 µM
CN(C)C=Nc1nc(=O)n(C2CCC(CO)O2)cc1F (stereo unspecified)	> 100 µM
O=c1c(F)cn(Cc2c(Cl)cccc2Cl)c(=O)n1Cc1c(Cl)cccc1Cl	> 31.6 µM
C[N+]12C=CC=C1C(N1CCCC1)c1scc(-c3ccc(Br)cc3)c12 (stereo unspecified)	> 100 µM
